Assayed target: T1, human Mdm2 (1–125) (human)
T1 construct: Mdm2, human, residues 1-125; the stretch after the TEV site ENLYFQG of the fusion protein; No cleavage of the tags is described, so it is open whether the fusion or cleaved Mdm2 stood in the FP and ITC assays; also called purified recombinant human Mdm2 protein (amino acids 1–125); source: E. coli BL21 (DE3) Rosetta T1R, purified (Ni-NTA, gel filtration)
T1 sequence (chain, as listed by the source): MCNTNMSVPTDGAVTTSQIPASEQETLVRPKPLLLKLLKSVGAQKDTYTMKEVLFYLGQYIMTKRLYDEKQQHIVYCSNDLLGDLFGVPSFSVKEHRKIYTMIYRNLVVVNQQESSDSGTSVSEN
Assay summary: fluorescence polarisation; competition: unlabeled peptide titrated against the complex of 250 nM Mdm2 (1–125) and 50 nM FAM-labeled 12/1 peptide; apparent Kd from the tracer's Kd of […] nM; PBS pH 7.4, 0.1% Tween 20; triplicate
Study conditions: both partners purified
Bridge positions count the residues as written; N and C are the ends. Square brackets hold non-standard residues; d marks the D form. Primed or numbered codes have the meaning given here. R8 = C=CCCCCCC[C@@](C)(N)C(=O)O; dCba = N[C@H](CC1CCC1)C(=O)O; S5 = C=CCCC[C@](C)(N)C(=O)O; Cba′ = not defined here; Aib = CC(C)(N)C(=O)O
Readout kind: pKd
One number for each entry, as −log10 of the molar value.

Example results:
[[record]]
binder = "Ac-LTF[R8]EYWQL[Cba′][S5]SA[dA]-NH2 (staple 4-11; reading uncertain) [MP-292 A14(D-Ala)]"
readout_kind = "pKd"
readout_number = 7.74

[[record]]
binder = "Ac-LTF[R8]EYWQL[Cba′][S5][dS]AA-NH2 (staple 4-11; reading uncertain) [MP-292 S12(D-Ser)]"
readout_kind = "pKd"
readout_number = 8.07

[[record]]
binder = "Ac-LTF[R8]EYWQL[Cba′][S5]AAA-NH2 (staple 4-11; reading uncertain) [MP-292 S12A]"
readout_kind = "pKd"
readout_number = 7.69

[[record]]
binder = "Ac-LT[dF][R8]EYWQL[Cba′][S5]SAA-NH2 (staple 4-11; reading uncertain) [MP-292 F3(D-Phe)]"
readout_kind = "pKd"
readout_number = 5.19

[[record]]
binder = "Ac-LTF[R8][dE]YWQL[Cba′][S5]SAA-NH2 (staple 4-11; reading uncertain) [MP-292 E5(D-Glu)]"
readout_kind = "pKd"
readout_number = 7.49

[[record]]
binder = "Ac-LTF[R8]EYWQA[Cba′][S5]SAA-NH2 (staple 4-11; reading uncertain) [MP-292 L9A]"
readout_kind = "pKd"
readout_number = 7.92

[[record]]
binder = "Ac-LTF[R8]E[dY]WQL[Cba′][S5]SAA-NH2 (staple 4-11; reading uncertain) [MP-292 Y6 (D-Tyr)]"
readout_kind = "pKd"
readout_number = 6.54

[[record]]
binder = "Ac-LTF[R8]EYW[dQ]L[Cba′][S5]SAA-NH2 (staple 4-11; reading uncertain) [MP-292 Q8(D-Gln)]"
readout_kind = "pKd"
readout_number = 7.66

[[record]]
binder = "Ac-LTF[R8]EYWQL[dCba][S5]SAA-NH2 (staple 4-11) [MP-292 Cba10(D-Cba)]"
readout_kind = "pKd"
readout_number = 5.78

[[record]]
binder = "Ac-LTF[R8]EYAQL[Cba′][S5]SAA-NH2 (staple 4-11; reading uncertain) [MP-292 W7A]"
readout_kind = "pKd"
readout_number = 5.29


For the 8 binders below, give their pKd values.
1. Ac-LTF[R8]EYWQL[Cba′][S5]S[dA]A-NH2 (staple 4-11; reading uncertain) [MP-292 A13(D-Ala)]
2. Ac-LTF[R8]EY[dW]QL[Cba′][S5]SAA-NH2 (staple 4-11; reading uncertain) [W6(D-Trp) (MP-384)]
3. Ac-LTF[R8]EYWQ[dL][Cba′][S5]SAA-NH2 (staple 4-11; reading uncertain) [MP-292 L9(D-Leu)]
4. Ac-[dL]TF[Aib]EYWQL[Cba′][Aib]SAA-NH2 (reading uncertain) [Linear L1(D-Leu)]
5. Ac-LTF[Aib]EYWQ[dL][Cba′][Aib]SAA-NH2 (reading uncertain) [Linear L9(D-Leu)]
6. Ac-LTF[Aib]EYWQL[Cba′][Aib]SAA-NH2 (reading uncertain) [Linear Parent (MP-189)]
7. Ac-LTF[R8]EAWQL[Cba′][S5]SAA-NH2 (staple 4-11; reading uncertain) [MP-292 Y6A]
8. Ac-[dL]TF[R8]EYWQL[Cba′][S5]SAA-NH2 (staple 4-11; reading uncertain) [MP-292 L1(D-Leu)]

7.77
7.52
7.52
6.56
7.06
7.37
7.41
7.51

Returns the measured pKd for the input binder. Input: Ac-LTF[R8]EYWQL[Cba′][S5]SAA-NH2 (staple 4-11; reading uncertain) [MP-292]
7.73

Every entry's value here was drawn from paper PMC6632053.
